assay: Caspase-3/7 induction in HepG2 cells by small molecules, qHTS cell viability counter screen (AID 1346981); conditions: CellTiter-Fluor fluorescence, 17 h; series mostly up to 92.4 µM; note: nearly all actives have a fitted effect of over 30% in size
Inconclusive results are not listed. Active and inactive are the calls of the source. Calls come from the whole dose curve; as a rule, active = well fitted cell-killing curve with a large enough effect in the repeat runs; inconclusive = weak or mixed curves, or effect the other way; inactive = flat fitted curve, though single readings scatter.
One label from this list, please: True for active, False for inactive

# count of solved cases: 4
N#CC1(c2ccc(F)cc2)CCC(=O)CC1
False
C[C@H]1[C@H]2CC[C@H]3[C@@H]4CC=C5C[C@@H](N(C)C)CC[C@]5(C)[C@H]4CC[C@]23CN1C
False
CC(C)(C)C(=O)OCOC(=O)[C@@H]1N2C(=O)[C@@H](NC(=O)[C@H](N)c3ccccc3)[C@H]2SC1(C)C
False
O=Cc1cc(O)ccc1Br
False

Ask | Please indicate how the test categorized CCCCCCCCCCCCCCCCCC[N+](C)(C)Cc1ccccc1 .
Reply | True

----------
target: Androgen receptor (Homo sapiens) (UniProt P10275); assay: qHTS assay to identify small molecule agonists of the androgen receptor (AR) signaling pathway using the MDA cell line (AID 743040; note: nearly all actives have a fitted effect of over 20% in size); settings: MDA-kb2 AR-luc cells, MMTV luciferase, 16 h; series mostly up to 70.3 µM
Sequence (P10275 whole entry, looked up): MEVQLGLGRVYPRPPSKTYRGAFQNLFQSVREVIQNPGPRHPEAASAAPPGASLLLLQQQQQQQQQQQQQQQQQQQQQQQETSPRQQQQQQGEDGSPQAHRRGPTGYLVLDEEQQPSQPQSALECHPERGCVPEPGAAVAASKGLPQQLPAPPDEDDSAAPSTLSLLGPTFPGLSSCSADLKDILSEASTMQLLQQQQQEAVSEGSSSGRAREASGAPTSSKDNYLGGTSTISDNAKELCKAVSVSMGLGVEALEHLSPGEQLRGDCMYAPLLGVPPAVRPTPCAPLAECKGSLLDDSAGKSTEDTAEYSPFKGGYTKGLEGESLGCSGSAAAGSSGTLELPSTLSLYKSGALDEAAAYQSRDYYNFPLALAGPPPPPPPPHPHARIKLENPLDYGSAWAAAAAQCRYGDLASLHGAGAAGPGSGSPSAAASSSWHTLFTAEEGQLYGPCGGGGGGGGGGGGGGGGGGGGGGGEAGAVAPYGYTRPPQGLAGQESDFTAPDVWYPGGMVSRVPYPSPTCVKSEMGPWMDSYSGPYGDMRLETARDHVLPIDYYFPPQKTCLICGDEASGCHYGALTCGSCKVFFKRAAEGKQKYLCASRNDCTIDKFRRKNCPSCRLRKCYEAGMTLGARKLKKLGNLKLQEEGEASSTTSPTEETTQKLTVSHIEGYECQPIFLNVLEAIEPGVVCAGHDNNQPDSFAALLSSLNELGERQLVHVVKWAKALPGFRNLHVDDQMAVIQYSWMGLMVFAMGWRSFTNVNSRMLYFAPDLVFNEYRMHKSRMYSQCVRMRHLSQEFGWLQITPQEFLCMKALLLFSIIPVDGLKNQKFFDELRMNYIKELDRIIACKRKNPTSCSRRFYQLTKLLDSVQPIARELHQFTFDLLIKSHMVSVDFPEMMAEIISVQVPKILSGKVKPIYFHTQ
Activity calls are given as the source filed them. Calls follow the shape of the dose curve; as a rule, active = well fitted activation curve with a large enough effect in the repeat runs; inconclusive = weak or mixed curves; inactive = flat fitted curve, though single readings scatter.
One label from this list, please: active, inactive

NNC(=O)c1cccc(C(=O)NN)c1
inactive
C[C@@H](NCCCc1cccc(C(F)(F)F)c1)c1cccc2ccccc12
inactive
CCCC(=O)OC[C@@H](OC(=O)CCC)[C@@H](OC(=O)CCC)[C@H](Cn1c2nc(=O)[nH]c(=O)c-2nc2cc(C)c(C)cc21)OC(=O)CCC
active
NC(=O)N1C(=O)C(C(=O)c2cc(Cl)cs2)c2cc(F)c(Cl)cc21 (configuration not stated)
inactive
CCCCCCCCCCn1cc[n+](CCCCCCCCCC)c1C
inactive

Ask | Please indicate how the test categorized Oc1ccc(N=Nc2ccccc2)cc1 .
Reply | inactive

Ask | Again, but for CC(C)(C)CC(C)(C)c1ccc(O)c(Cc2ccc(Cl)cc2Cl)c1
Reply | inactive

Ask | Again, but for [O-][n+]1ccccc1SSc1cccc[n+]1[O-]
Reply | inactive

Ask | Again, but for C[C@@H]1C[C@H]2[C@@H]3CCC4=CC(=O)C=C[C@]4(C)[C@@]3(Cl)[C@@H](O)C[C@]2(C)[C@@]1(OC(=O)c1ccco1)C(=O)CCl
Reply | active

Ask | Again, but for Oc1cc2ccccc2c2ccccc12
Reply | inactive

Ask | Again, but for COc1cc(-c2nc(NC(=O)c3cc4cc(C)cc(C)c4n3CC(=O)O)sc2CCC2CCCCC2)c(OC)cc1Cl
Reply | inactive

Ask | Again, but for O=C(c1ccc(O)cc1O)c1ccc(O)cc1O
Reply | inactive

----------
target: Glucocorticoid receptor (Homo sapiens) (UniProt P04150); assay: qHTS assay to identify small molecule agonists of the glucocorticoid receptor (GR) signaling pathway (AID 720691); details: GR-bla HeLa, beta-lactamase reporter ratio, 18 h; for activation: % is set by controls: 0 for no effect and ±100 for the full control effect
Sequence (P04150 whole entry, looked up): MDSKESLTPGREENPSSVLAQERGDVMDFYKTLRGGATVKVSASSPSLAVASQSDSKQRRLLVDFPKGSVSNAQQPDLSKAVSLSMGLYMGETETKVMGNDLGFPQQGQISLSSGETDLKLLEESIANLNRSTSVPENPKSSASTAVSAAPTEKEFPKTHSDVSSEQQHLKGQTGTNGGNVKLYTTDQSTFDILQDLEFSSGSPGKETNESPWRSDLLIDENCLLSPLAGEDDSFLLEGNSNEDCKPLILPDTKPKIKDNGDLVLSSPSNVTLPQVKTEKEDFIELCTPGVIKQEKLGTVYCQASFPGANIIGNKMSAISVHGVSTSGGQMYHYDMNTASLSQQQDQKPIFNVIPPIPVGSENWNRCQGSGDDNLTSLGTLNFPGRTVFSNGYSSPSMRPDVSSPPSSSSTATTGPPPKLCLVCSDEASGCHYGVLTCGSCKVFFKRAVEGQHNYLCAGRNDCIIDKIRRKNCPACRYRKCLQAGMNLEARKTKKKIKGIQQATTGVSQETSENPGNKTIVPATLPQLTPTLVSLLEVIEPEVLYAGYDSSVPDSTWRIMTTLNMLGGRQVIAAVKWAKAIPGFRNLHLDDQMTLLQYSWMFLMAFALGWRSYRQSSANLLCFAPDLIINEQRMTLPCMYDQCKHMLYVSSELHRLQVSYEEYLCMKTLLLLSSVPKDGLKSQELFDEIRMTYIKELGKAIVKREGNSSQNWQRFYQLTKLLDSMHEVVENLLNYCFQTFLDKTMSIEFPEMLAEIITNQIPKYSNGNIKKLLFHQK
The source made the active and inactive calls. Calls follow the shape of the dose curve; as a rule, active = well fitted activation curve with a large enough effect in the signal ratio in the repeat runs (not every such curve was filed as active); inconclusive = weak or mixed curves, or effect the other way; inactive = no such curve, though single readings can be large or run the other way; the % refers to the signal ratio.
One label from this list, please: 1.0 for active, 0.0 for inactive

# count of solved cases: 4
NNc1nc(-c2ccccc2)cs1
0.0
COCCCC/C(=N\OCCN)c1ccc(C(F)(F)F)cc1
0.0
Cc1cccc2c1cc1ccc3cccc4ccc2c1c34
1.0
COc1cc(/C=C/C(=O)O[C@H]2CC[C@]34C[C@]35CC[C@]3(C)[C@@H]([C@H](C)CCC=C(C)C)CC[C@@]3(C)[C@@H]5CC[C@H]4C2(C)C)ccc1O
1.0

Ask | Please indicate how the test categorized CC(C)CCCCCCCCCCCCCCC(=O)O .
Reply | 0.0

Ask | Again, but for COc1cccc(N)c1
Reply | 0.0

Ask | Again, but for CC(C)(C)c1ccc(C(=O)O)cc1
Reply | 0.0

Ask | Again, but for CCCCCCCCS(=O)C(C)Cc1ccc2c(c1)OCO2 (centres undefined)
Reply | 0.0

Ask | Again, but for O=C(c1ccc(O)cc1O)c1ccc(O)cc1O
Reply | 0.0

----------
assay: qHTS assay to identify small molecule agonists of the TGF-beta/Smad signaling pathway - cell viability counter screen (AID 1346829); conditions: SBE-bla HEK293T viability, CellTiter-Glo luminescence, 5 h; series mostly up to 76.8 µM; note: top concentration of the series differs between compounds; % is set by controls: 0 for no effect and ±100 for the full control effect; nearly all actives have a fitted effect of over 45% in size
Results filed as inconclusive are left out. Activity calls are given as the source filed them. Calls follow the shape of the dose curve; as a rule, active = well fitted cell-killing curve with a large enough effect in the repeat runs; inconclusive = weak or mixed curves, or effect the other way; inactive = flat fitted curve, though single readings scatter.
One label from this list, please: active, inactive

O=C1Cc2cc(CCN3CCN(c4nsc5ccccc45)CC3)c(Cl)cc2N1
inactive
Nc1ccc2c3c(cccc13)-c1ccccc1-2
inactive
CCCCC(CC)COC(=O)c1ccccc1C(=O)O (configuration not stated)
inactive
CNCc1cc(F)ccc1Oc1ccc(Cl)c(Cl)c1
inactive
Fc1ccc([C@@H]2CCNC[C@H]2COc2ccc3c(c2)OCO3)cc1
inactive

Attention now shifts to the item below.
Ask | Please indicate how the test categorized O=[N+]([O-])c1cc([N+](=O)[O-])c2ccc(S(=O)(=O)O)cc2c1O .
Reply | inactive

----------
molecular target: Cytochrome P450 1A2 (Homo sapiens) (UniProt P05177); experiment: Cytochrome P450 Family 1 Subfamily A Member 2 (CYP1A2) small molecule antagonists: luciferase reporter qHTS assay (AID 1671199); details: P450-Glo CYP1A2 enzyme, luciferin luminescence, 1 h; series mostly up to 53 µM; note: nearly all actives have a fitted effect of over 50% in size
Sequence (P05177 whole entry, looked up): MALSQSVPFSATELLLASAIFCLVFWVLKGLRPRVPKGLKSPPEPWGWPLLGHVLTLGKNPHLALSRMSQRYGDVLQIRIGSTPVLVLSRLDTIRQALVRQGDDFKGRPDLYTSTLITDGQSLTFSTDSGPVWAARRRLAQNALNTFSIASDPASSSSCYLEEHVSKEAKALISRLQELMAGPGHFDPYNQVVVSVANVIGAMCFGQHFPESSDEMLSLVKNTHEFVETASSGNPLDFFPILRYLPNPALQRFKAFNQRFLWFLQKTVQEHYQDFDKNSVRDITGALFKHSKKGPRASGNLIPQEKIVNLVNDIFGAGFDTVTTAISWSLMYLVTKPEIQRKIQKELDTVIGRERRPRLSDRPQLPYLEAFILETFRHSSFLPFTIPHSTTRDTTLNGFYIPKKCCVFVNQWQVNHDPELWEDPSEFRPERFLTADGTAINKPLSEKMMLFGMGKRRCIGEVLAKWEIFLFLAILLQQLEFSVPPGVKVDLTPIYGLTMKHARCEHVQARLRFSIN
Records with an inconclusive call do not appear. Calls of active or inactive are those of the source. Calls follow the shape of the dose curve; as a rule, active = well fitted inhibition curve with a large enough effect in the repeat runs; inconclusive = weak or mixed curves; inactive = no such curve, though single readings can be large or run the other way.
One label from this list, please: active, inactive

Cc1ccc2oc(CN(Cc3ccccc3)C(=O)Nc3c(F)cc(F)cc3F)c(-c3ccc(Cl)cc3)c2c1
active
CN(C)C(=O)C1(N2CCCCC2)CCN(CC[C@@]2(c3ccc(Cl)c(Cl)c3)CN(C(=O)c3ccccc3)CCO2)CC1
inactive
CCCCCCCCCCCCCCCS(=O)(=O)Oc1ccccc1
inactive
CCCCCCCCOc1ccccc1C(=O)Nc1ccc(C(=O)OCC[N+](C)(CC)CC)cc1
inactive

Ask | Please indicate how the test categorized NNc1nc(-c2ccccc2)cs1 .
Reply | active

----------
assay: Caspase-3/7 induction in CHO-K1 cells by small molecules, qHTS assay (AID 1346980); conditions: CHO-K1 caspase-3/7 induction, Caspase-Glo luminescence, 17 h; series mostly up to 92.4 µM; note: nearly all actives have a fitted effect of over 15% in size
Active and inactive are the calls of the source. The call rests on the fitted dose curve; in most records, active means well fitted activation curve with a large enough effect in the repeat runs; inconclusive means weak or mixed curves; inactive means flat fitted curve, though single readings scatter.
One label from this list, please: active, inactive

# count of solved cases: 9
c1ccc(CSCc2ccccc2)cc1
inactive
CCN(Cc1cccnc1)C(=O)c1cccc(Cl)c1[C@]1(C)C(=O)N(Cc2ccc(OC)cc2OC)c2ccc(Cl)cc21
inactive
Cc1cc(=O)oc2cc(N(C)C)ccc12
inactive
CN1CCC(Nc2ncc3ncnc(Nc4ccc(F)c(Cl)c4)c3n2)CC1
inactive
O=C1c2ccccc2Cc2ccccc21
inactive
C=CC(=O)OCC(CO)(COCC(COC(=O)C=C)(COC(=O)C=C)COC(=O)C=C)COC(=O)C=C
active
NC(=O)NS(=O)(=O)c1ccc(N)cc1
inactive
CCCCN1CCCC[C@H]1C(=O)Nc1c(C)cccc1C
inactive
CCCCCCC[N+](CC)(CC)CCCCc1ccc(Cl)cc1
inactive

Ask | Please indicate how the test categorized COc1cccc2c1C(=O)c1c(O)c3c(c(O)c1C2=O)C[C@@](O)(C(=O)CO)C[C@@H]3O[C@H]1C[C@H](N)[C@H](O[C@@H]2CCCCO2)[C@H](C)O1 .
Reply | inactive

----------
biological target: Peroxisome proliferator-activated receptor delta (Homo sapiens) (UniProt Q03181); test: qHTS assay to identify small molecule antagonists of the peroxisome proliferator-activated receptor delta (PPARd) signaling pathway (AID 743215); details: HEK293H PPARd-UAS-bla, beta-lactamase FRET ratio, antagonist, 17 h; series mostly up to 62 µM;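 note: cells stimulated with agonist L165041 at 300 nM final during compound exposure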
Sequence (Q03181 whole entry, looked up): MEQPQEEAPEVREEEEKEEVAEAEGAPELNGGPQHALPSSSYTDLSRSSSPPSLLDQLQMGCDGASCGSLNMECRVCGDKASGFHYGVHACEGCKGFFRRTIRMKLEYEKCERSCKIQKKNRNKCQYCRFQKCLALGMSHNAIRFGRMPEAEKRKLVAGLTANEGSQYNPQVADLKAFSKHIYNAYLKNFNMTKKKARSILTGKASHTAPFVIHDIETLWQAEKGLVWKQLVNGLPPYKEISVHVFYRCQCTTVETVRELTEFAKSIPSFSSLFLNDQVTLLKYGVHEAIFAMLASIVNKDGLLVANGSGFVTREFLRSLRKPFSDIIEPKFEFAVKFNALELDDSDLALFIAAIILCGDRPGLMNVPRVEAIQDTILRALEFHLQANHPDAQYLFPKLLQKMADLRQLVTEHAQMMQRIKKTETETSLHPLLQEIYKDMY
Results filed as inconclusive are left out. Calls of active or inactive are those of the source. Calls follow the shape of the dose curve; as a rule, active = well fitted inhibition curve with a large enough effect in the signal ratio in the repeat runs (not every such curve was filed as active); inconclusive = weak or mixed curves, or effect the other way; inactive = no such curve, though single readings can be large or run the other way; the % refers to the signal ratio.
One label from this list, please: active, inactive

# count of solved cases: 3
Clc1ccc2cc3ccccc3cc2c1
inactive
CCCCN1C(=O)[C@@H]([C@H](O)C2CCCCC2)NC(=O)C12CCN(Cc1ccc(Oc3ccc(C(=O)O)cc3)cc1)CC2
inactive
C=CC(=O)OCCn1c(=O)n(CCOC(=O)C=C)c(=O)n(CCOC(=O)C=C)c1=O
active

Ask | Please indicate how the test categorized ON=C1CCCC1 .
Reply | inactive

Ask | Again, but for CCCN(CCC)C(=O)C(CCC(=O)OCCCN1CCN(CCOC(=O)Cc2c(C)n(C(=O)c3ccc(Cl)cc3)c3ccc(OC)cc23)CC1)NC(=O)c1ccccc1 (centres undefined)
Reply | active

Ask | Again, but for O=C(O)c1cc(O)c2c(c1)C(=O)c1cccc(O)c1C2=O
Reply | inactive

Ask | Again, but for COC(=O)C1=C(C)NC(C)=C(C(=O)OCCc2ccc(N3CCN(C(c4ccccc4)c4ccccc4)CC3)cc2)C1c1cccc([N+](=O)[O-])c1 (centres undefined)
Reply | inactive

Ask | Again, but for Cc1cc(CCN2CCN(c3nsc4ccccc34)CC2)cc2c1NC(=O)CC2(C)C
Reply | active

Ask | Again, but for CC1(C)CCC(C)(C)c2cc(C(=O)Nc3ccc(C(=O)O)cc3)ccc21
Reply | inactive

Values from PubChem BioAssay (Tox21)
